- measured target: Interstitial collagenase (Homo sapiens); further: in other assays of this panel Not Active means under 50% inhibition at 10 µM
- Sequence (P03956 whole entry): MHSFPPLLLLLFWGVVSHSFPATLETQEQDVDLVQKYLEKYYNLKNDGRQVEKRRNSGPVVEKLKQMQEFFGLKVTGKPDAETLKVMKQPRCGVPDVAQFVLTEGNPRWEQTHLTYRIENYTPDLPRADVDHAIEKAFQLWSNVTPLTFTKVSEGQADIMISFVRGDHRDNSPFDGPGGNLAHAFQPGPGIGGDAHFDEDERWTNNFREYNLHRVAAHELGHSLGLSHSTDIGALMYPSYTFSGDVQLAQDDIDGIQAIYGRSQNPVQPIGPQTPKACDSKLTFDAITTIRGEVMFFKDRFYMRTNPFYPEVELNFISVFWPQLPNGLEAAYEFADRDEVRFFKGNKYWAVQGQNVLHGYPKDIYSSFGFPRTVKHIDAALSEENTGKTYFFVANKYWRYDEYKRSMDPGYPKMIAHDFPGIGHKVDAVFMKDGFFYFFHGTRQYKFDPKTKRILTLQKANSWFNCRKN
- assay protocol: biochemical
- Type: tissue-based, Rheumatoid synovial fibroblasts
- condition set: read-out: IC50
value kind: IC50 (µM)
Unit µM implied. Number only.

Inquiry: API: value(readout= IC50, system= Interstitial collagenase (Homo sapiens), query= CS(=O)(=O)Nc1ccc([N+](=O)[O-])cc1Oc1ccccc1 [NIMESULIDE] );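 further: MMP-1 enzyme inhibition assay using a peptide substrate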; further: in other assays of this panel Not Active means under 50% inhibition at 10 µM
Reply text: 23.3

* * *

- measured target: 5-hydroxytryptamine receptor 2C (Homo sapiens, UniProt P28335)
- Sequence (P28335 whole entry): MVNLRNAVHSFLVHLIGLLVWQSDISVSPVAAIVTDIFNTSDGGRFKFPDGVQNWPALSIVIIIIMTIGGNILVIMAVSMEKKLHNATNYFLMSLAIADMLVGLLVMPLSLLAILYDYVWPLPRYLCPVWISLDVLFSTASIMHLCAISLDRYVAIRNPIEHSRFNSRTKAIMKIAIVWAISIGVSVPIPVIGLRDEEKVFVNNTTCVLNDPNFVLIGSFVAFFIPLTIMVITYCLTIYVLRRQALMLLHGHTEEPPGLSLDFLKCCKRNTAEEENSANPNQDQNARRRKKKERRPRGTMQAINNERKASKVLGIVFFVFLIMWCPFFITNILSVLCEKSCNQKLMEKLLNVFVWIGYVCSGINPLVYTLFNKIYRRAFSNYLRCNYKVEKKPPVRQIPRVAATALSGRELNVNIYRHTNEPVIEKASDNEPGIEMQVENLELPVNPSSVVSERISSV
- assay protocol: DRUGMATRIX: Serotonin (5-Hydroxytryptamine) 5-HT2C radioligand binding (ligand: [3H] Mesulergine)
- Format: cell membranes, CHO-K1, Membrane
- condition set: cho-k1; Not Active = under 50% inhibition at 10 µM
value kind: IC50

# example entries with known answers
# molecule, IC50
data = [
    ("CCOC(=O)c1ncn2c1CN(C)C(=O)c1cc(F)ccc1-2", "Not Active"),
    ("C[N+](C)(C)CCOC(=O)CCC(=O)OCC[N+](C)(C)C.[Cl-].[Cl-] [SUCCINYLCHOLINE CHLORIDE]", "Not Active"),
    ("CC(O)(P(=O)(O)O)P(=O)(O)O", "Not Active"),
    ("NC(=O)N1c2ccccc2CC(=O)c2ccccc21 [OXCARBAZEPINE]", "Not Active"),
    ("NS(=O)(=O)c1cc(C2(O)NC(=O)c3ccccc32)ccc1Cl (centres undefined)", "Not Active"),
    ("CN1CCN(c2c(F)cc3c(=O)c(C(=O)O)cn(CCF)c3c2F)CC1", "Not Active"),
]

Inquiry: Which IC50 value is on record for Cc1c(O)cccc1C(=O)N[C@@H](CSc1ccccc1)[C@H](O)CN1C[C@H]2CCCC[C@H]2C[C@H]1C(=O)NC(C)(C)C ?
Reply text: Not Active

Inquiry: Which IC50 value is on record for O=c1[nH]c(=O)n([C@H]2C[C@H](O)[C@@H](CO)O2)cc1F ?
Reply text: Not Active

Inquiry: Which IC50 value is on record for CNC1=Nc2ccc(Cl)cc2C(c2ccccc2)=[N+]([O-])C1 [CHLORDIAZEPOXIDE] ?
Reply text: Not Active
